# targetEntity: T1, IL10Rα/IL2Rγ receptor (human) (UniProt Q13651)
# T1 sequence (looked up) 1: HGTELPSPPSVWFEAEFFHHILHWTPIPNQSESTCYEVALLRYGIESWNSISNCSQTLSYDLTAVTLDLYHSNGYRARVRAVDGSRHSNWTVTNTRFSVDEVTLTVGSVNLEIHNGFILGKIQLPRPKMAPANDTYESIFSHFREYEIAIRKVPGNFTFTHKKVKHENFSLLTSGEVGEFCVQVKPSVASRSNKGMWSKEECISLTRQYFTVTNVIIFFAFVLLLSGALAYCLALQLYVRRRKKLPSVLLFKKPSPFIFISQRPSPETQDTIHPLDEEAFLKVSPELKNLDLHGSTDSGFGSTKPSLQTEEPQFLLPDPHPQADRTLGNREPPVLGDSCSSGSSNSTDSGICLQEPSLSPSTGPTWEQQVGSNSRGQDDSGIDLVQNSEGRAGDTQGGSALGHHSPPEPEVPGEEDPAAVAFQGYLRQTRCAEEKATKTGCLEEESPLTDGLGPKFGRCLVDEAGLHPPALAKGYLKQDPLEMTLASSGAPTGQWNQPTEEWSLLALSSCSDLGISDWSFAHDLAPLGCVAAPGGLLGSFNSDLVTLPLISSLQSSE
# T1 sequence (looked up) 2: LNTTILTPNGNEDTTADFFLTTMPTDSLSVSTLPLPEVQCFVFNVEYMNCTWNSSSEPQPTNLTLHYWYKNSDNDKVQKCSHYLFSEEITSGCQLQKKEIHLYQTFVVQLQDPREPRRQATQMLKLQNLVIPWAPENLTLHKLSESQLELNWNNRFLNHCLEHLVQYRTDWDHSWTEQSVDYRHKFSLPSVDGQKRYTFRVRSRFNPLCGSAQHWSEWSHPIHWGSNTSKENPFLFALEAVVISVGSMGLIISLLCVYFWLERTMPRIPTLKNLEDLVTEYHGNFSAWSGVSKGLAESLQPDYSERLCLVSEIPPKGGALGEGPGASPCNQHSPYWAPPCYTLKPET
# procedureText: cell-based or functional assay
Record form. Attribute: IFNγ secretion, CD8 T cells, at 1 µM. Fill in for each entry.
Numbers only, in pg/mL.

Some binders with known IFNγ secretion, CD8 T cells, at 1 µM results, for comparison:
[
  {
    "binder": "hIL10Ra_VHH14 - hIL2Rg_VHH19, linker GGSGGS, tag his (bispecific antibody, not shown: small tags and cut ends) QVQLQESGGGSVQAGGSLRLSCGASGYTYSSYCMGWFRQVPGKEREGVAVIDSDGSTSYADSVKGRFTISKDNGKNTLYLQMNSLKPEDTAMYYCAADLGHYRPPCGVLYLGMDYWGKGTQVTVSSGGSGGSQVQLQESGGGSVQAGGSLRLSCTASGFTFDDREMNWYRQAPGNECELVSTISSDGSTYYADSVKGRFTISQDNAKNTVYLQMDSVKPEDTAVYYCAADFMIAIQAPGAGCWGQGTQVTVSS",
    "IFNγ secretion, CD8 T cells, at 1 µM (pg/mL)": 144000
  },
  {
    "binder": "hIL10Ra_VHH14 - hIL2Rg_VHH19, linker GS, tag his (bispecific antibody, not shown: small tags and cut ends) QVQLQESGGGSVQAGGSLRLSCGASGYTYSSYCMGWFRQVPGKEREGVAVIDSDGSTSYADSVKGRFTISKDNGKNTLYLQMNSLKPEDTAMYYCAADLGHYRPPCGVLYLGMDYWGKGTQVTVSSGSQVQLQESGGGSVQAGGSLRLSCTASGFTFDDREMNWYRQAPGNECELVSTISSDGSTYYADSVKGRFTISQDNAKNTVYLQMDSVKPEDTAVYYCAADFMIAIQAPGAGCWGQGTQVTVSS",
    "IFNγ secretion, CD8 T cells, at 1 µM (pg/mL)": 134000
  },
  {
    "binder": "hIL10Ra_VHH14 - hIL2Rg_VHH19, linker …, tag his (bispecific antibody, not shown: small tags and cut ends) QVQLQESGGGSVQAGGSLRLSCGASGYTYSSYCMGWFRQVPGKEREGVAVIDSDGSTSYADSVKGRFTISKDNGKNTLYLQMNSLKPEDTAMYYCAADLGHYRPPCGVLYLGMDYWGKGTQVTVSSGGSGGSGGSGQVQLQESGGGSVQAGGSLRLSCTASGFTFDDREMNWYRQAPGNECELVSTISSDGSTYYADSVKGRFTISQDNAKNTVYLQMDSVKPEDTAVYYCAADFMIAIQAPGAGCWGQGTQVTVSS",
    "IFNγ secretion, CD8 T cells, at 1 µM (pg/mL)": 147000
  },
  {
    "binder": "hIL10Ra_VHH14 - hIL2Rg_VHH19, linker GGGS, tag Fc (bispecific antibody, not shown: a dimerising Fc or GST) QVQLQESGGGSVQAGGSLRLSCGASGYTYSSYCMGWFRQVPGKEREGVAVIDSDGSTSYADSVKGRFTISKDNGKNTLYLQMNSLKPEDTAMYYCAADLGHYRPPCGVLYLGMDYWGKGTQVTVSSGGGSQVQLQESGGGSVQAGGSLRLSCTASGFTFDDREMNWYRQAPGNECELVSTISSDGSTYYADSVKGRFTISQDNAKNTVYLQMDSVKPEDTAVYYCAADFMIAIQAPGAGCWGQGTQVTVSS",
    "IFNγ secretion, CD8 T cells, at 1 µM (pg/mL)": 166000
  },
  {
    "binder": "hIL10Ra_VHH14 - hIL2Rg_VHH19, linker GGGSGGGS, tag his (bispecific antibody, not shown: small tags and cut ends) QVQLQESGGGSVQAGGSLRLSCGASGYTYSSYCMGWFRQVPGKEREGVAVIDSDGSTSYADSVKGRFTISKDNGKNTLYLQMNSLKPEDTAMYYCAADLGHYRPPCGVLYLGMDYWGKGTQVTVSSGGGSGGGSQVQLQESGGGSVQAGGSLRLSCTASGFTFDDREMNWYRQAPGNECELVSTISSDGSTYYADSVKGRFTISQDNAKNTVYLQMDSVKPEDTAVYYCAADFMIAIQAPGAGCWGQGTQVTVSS",
    "IFNγ secretion, CD8 T cells, at 1 µM (pg/mL)": 142000
  }
]

Below: the item to evaluate.
Tell me the measured IFNγ secretion, CD8 T cells, at 1 µM of hIL10Ra_VHH14 - hIL2Rg_VHH19, No linker, tag his (bispecific antibody, not shown: small tags and cut ends) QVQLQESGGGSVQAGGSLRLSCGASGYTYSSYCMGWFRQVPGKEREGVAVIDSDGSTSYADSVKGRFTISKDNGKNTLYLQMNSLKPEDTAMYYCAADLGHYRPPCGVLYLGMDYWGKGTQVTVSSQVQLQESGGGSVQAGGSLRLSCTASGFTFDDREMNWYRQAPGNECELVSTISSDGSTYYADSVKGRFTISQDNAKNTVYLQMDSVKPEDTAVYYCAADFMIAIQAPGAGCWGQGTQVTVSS , please.
123000
